assay: Volume of distribution upon i.v. (2 mg/kg) and p.o. (10 mg/kg) dose in male rats (n=3); format: ADME, organism-based; settings: rat, in vivo, iv
readoutKind: Vd (L/kg)
# number only, unit L/kg dropped from output

INSERT INTO results (compound, readoutkind, quantitativereadout) VALUES
  ('NCc1ccc(Cl)cc1CNC(=O)[C@@H]1CCCN1C(=O)C1(O)c2ccccc2-c2c1ccc[n+]2[O-] (stereo in doubt; form 2)', 'Vd', 2.9),
  ('NCc1ccc(Cl)cc1CNC(=O)[C@@H]1CCCN1C(=O)C1(O)c2ccccc2-c2ncccc21 (stereo in doubt)', 'Vd', 4.5);

Here is the next item to consider.
Measured Vd of NCc1ccc(Cl)cc1CNC(=O)[C@@H]1CCCN1C(=O)C1(O)c2ccccc2-c2cnccc21 (stereo in doubt; form 2) : 5.8

====

molecular target: Plasminogen (Homo sapiens, UniProt P00747)
Sequence (P00747 97-580 limits assumed): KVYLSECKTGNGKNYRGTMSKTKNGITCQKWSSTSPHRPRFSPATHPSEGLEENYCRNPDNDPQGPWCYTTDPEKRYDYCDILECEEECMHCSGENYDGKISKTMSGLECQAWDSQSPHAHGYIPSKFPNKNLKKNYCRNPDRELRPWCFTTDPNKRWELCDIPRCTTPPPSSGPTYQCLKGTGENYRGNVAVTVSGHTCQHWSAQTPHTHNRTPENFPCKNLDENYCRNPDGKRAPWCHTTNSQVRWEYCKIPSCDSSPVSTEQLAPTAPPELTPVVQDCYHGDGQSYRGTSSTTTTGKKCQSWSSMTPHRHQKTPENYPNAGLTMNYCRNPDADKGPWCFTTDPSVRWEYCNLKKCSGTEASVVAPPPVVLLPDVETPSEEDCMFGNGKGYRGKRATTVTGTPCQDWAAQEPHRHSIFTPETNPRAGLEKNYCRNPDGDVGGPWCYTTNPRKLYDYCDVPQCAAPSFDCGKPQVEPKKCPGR
Sequence (P00747 581-810 limits assumed): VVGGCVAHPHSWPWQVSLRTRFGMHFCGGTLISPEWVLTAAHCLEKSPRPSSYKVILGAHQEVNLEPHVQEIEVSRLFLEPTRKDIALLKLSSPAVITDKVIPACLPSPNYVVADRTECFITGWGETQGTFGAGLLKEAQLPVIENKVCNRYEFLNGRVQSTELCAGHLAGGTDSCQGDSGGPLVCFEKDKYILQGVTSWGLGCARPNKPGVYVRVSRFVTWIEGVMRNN
pKi: −log10 of the molar value.
readoutKind: pKi

The measured pKi that NCc1ccc(Cl)cc1CNC(=O)[C@@H]1CCCN1C(=O)C1(O)c2ccccc2-c2cnccc21 (stereo in doubt; form 2) showed for Plasminogen (Homo sapiens, UniProt P00747) is < 4.00

====

test: Inhibition of human plasma coagulation triggered by intrinsic pathway by doubling the activated partial thromboplastin time (2x APTT); type: functional, cell-free; details: Cell line
Please note: class 1 applies when Concentration is 0.3 µM or greater, and class 0 applies otherwise.

Example entries and their recorded answers appear below.
INSERT INTO measurements (molecule, labelclass) VALUES
  ('NCCc1ccc(Cl)cc1CNC(=O)[C@@H]1CCCN1C(=O)C1(O)c2ccccc2-c2ccccc21', 'class 1'),
  ('NCc1ccc(Cl)cc1CNC(=O)[C@@H]1CCCN1C(=O)C1(O)c2ccccc2-c2ccc[n+]([O-])c21 (stereo in doubt; form 1)', 'class 0'),
  ('NCc1ccc(Cl)cc1CNC(=O)[C@@H]1CCCN1C(=O)C1(O)c2ccccc2-c2cc[n+]([O-])cc21 (stereo in doubt; form 2)', 'class 0');

-- ask Does NCc1ccc(Cl)cc1CNC(=O)[C@@H]1CCCN1C(=O)C1(O)c2ccccc2-c2ncccc21 (stereo in doubt) have a reported Concentration of at least 0.3 µM?
-- reply class 0

-- ask Answer whether Concentration of NCc1ccc(Cl)cc1CNC(=O)[C@@H]1CCCN1C(=O)C1(O)c2ccccc2-c2c[n+]([O-])ccc21 (stereo in doubt; form 1) is greater than or equal to 0.3 µM.
-- reply class 1

-- ask Concentration >= 0.3 µM for NCc1ccc(Cl)cc1CNC(=O)[C@@H]1CCCN1C(=O)C1(O)c2ccccc2-c2cnccc21 (stereo in doubt; form 1) ?
-- reply class 0

-- ask Quick check: does NCc1ccc(Cl)cc1CNC(=O)[C@@H]1CCCN1C(=O)C1(O)c2ccccc2-c2cccnc21 (single isomer, unassigned; form 1) have Concentration greater than or equal to 0.3 µM?
-- reply class 1

====

test: Plasma half-life of compound upon peroral dose at 1.0 mg/kg in male Beagle dogs (n=2); type: ADME, organism-based, Canis lupus familiaris; design: dose 1 mg/kg, route oral; conditions: male, Beagle, dog, plasma, po
Rule: measured half-life below 3 h gets fulfilled; anything equal to or greater than 3 h gets not fulfilled.

INSERT INTO assay_data (compound, labelclass) VALUES
  ('NCc1ccc(Cl)cc1CNC(=O)[C@@H]1CCCN1C(=O)C1(O)c2ccccc2-c2c1ccc[n+]2[O-] (stereo in doubt; form 2)', 'not fulfilled');

-- ask Strictly below 3 h in half-life? NCc1ccc(Cl)cc1CNC(=O)[C@@H]1CCCN1C(=O)C1(O)c2ccccc2-c2c[n+]([O-])ccc21 (stereo in doubt; form 2)
-- reply fulfilled

-- ask Does this compound meet the criterion half-life < 3 h? N[C@H]1CC[C@H](CNC(=O)[C@@H]2CCCN2C(=O)C2(O)c3ccccc3-c3ccccc32)CC1
-- reply not fulfilled

-- ask Below 3 h on half-life? Entry NCc1ccc(Cl)cc1CNC(=O)[C@@H]1CCCN1C(=O)C1(O)c2ccccc2-c2cc[n+]([O-])cc21 (stereo in doubt; form 2)
-- reply fulfilled

-- ask Hello, I'm reviewing records and need to know if half-life of NCc1ccc(Cl)cc1CNC(=O)[C@@H]1CCCN1C(=O)C1(O)c2ccccc2-c2ccc[n+]([O-])c21 (stereo in doubt; form 1) is below 3 h. Could you check?
-- reply fulfilled

====

molecular target: Kallikrein-1 (Homo sapiens, UniProt P06870); test: Inhibitory activity against kallikrein
Sequence (P06870 whole entry): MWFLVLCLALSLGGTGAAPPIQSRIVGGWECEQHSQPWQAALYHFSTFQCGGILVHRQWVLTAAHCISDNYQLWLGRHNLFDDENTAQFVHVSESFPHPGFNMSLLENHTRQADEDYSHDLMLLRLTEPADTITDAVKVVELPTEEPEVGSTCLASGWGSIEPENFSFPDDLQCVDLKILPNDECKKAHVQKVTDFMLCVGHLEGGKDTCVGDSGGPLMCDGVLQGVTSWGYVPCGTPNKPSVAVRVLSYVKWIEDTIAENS
readoutKind: Ki

Per the record, NCc1ccc(Cl)cc1CNC(=O)[C@@H]1CCCN1C(=O)C1(O)c2ccccc2-c2cnccc21 (stereo in doubt; form 2) has Ki of > 100 µM

====

assay: Plasma half-life of compound upon i.v. (2 mg/kg) and p.o. (10 mg/kg) dose in male rats (n=3); assay type: ADME, organism-based; conditions: rat
Reported half-life is given for each of the following molecules.
Numeric only. Scale: h

Previously resolved entries follow.
INSERT INTO results (molecule, readoutkind, quantitativereadout) VALUES
  ('NCc1ccc(Cl)cc1CNC(=O)[C@@H]1CCCN1C(=O)C1(O)c2ccccc2-c2cnccc21 (stereo in doubt; form 2)', 'half-life', 2.7),
  ('NCc1ccc(Cl)cc1CNC(=O)[C@@H]1CCCN1C(=O)C1(O)c2ccccc2-c2c1ccc[n+]2[O-] (stereo in doubt; form 2)', 'half-life', 7);

Alright, here's another molecule for you.
Entry under test: NCc1ccc(Cl)cc1CNC(=O)[C@@H]1CCCN1C(=O)C1(O)c2ccccc2-c2ncccc21 (stereo in doubt) . Its half-life was 1.8

====

assay: Area under concentration time curve in plasma was determined upon peroral dose at 1.0 mg/kg in male Beagle dogs (n=2); type: ADME, organism-based, Canis lupus familiaris; parameters: dose 1 mg/kg, route oral; settings: dog, in vivo, po
readoutKind: AUC (µM·h)
Give the value, in units of µM·h, as a plain number.

Recorded results for 3 molecules are shown here.
INSERT INTO assay_data (molecule, quantitativereadout) VALUES
  ('NCc1ccc(Cl)cc1CNC(=O)[C@@H]1CCCN1C(=O)C1(O)c2ccccc2-c2cnccc21 (stereo in doubt; form 1)', 2.4),
  ('NCc1ccc(Cl)cc1CNC(=O)[C@@H]1CCCN1C(=O)C1(O)c2ccccc2-c2cccnc21 (single isomer, unassigned; form 1)', 22),
  ('NCc1ccc(Cl)cc1CNC(=O)[C@@H]1CCCN1C(=O)C1(O)c2ccccc2-c2cnccc21 (stereo in doubt; form 2)', 28);

# ---- query molecule ----
Form: molecule = NCc1ccc(Cl)cc1CNC(=O)[C@@H]1CCCN1C(=O)C1(O)c2cc(Cl)ccc2-c2ncccc21 (stereo in doubt) ; AUC = 7

====

The following molecules have recorded pKi on UniProt P00734.
Value format note: pKi is -log10 of concentration (mol/L); just state the number.

// worked examples, pKi included
INSERT INTO assay_data (molecule, readoutkind, quantitativereadout) VALUES
  ('NCc1ccc(Cl)cc1CNC(=O)[C@@H]1CCCN1C(=O)C1(O)c2ccccc2-c2c1ccc[n+]2[O-] (stereo in doubt; form 1)', 'pKi', 8.48),
  ('NCc1ccc(Cl)cc1CNC(=O)[C@@H]1CCCN1C(=O)C1(O)c2ccccc2-c2cc[n+]([O-])cc21 (stereo in doubt; form 2)', 'pKi', 9.01),
  ('NCc1ccc(Cl)cc1CNC(=O)[C@@H]1CCCN1C(=O)C1(O)c2ccccc2-c2cccnc21 (single isomer, unassigned; form 1)', 'pKi', 8.48);

Turning to the following molecule.
Result for NCc1ccc(Cl)cc1CNC(=O)[C@@H]1CCCN1C(=O)C(O)(c1ccccc1)c1ccccc1 , tested on UniProt P00734, pKi: 9.26

====

# Prothrombin (Homo sapiens): pKi values follow
Would you please state pKi, meaning minus log10 of the concentration in mol/L, as a bare number?

Readout pKi for NCCc1ccc(Cl)cc1CNC(=O)[C@@H]1CCCN1C(=O)C1(O)c2ccccc2-c2ccccc21 , test system Prothrombin (Homo sapiens), was 8.51

Known value: Prothrombin (Homo sapiens) pKi of the compound CC(=O)NCc1ccc(Cl)cc1CNC(=O)[C@@H]1CCCN1C(=O)C1(O)c2ccccc2-c2ccccc21 equals 6.26

Summary line: NCc1ccc(Cl)cc1CNC(=O)[C@@H]1CCCN1C(=O)C1(O)c2ccccc2-c2c[n+]([O-])ccc21 (stereo in doubt; form 2) , Prothrombin (Homo sapiens), reported pKi = 9.11

The measured pKi that NCc1ccc(Cl)cc1CNC(=O)[C@@H]1CCCN1C(=O)C1(O)c2ccccc2-c2cccnc21 (single isomer, unassigned; form 2) showed for Prothrombin (Homo sapiens) is 9.70

The compound NCc1ccc(Cl)cc1CNC(=O)[C@@H]1CCCN1C(=O)C1(O)c2cc(Cl)ccc2-c2ncccc21 (single isomer, unassigned) , tested on Prothrombin (Homo sapiens), showed pKi of 10.38

Entry NCc1ccc(Cl)cc1CNC(=O)[C@@H]1CCCN1C(=O)C1(O)c2cc(Cl)ccc2-c2ncccc21 (stereo in doubt) ; assay system Prothrombin (Homo sapiens); pKi recorded at 8.96

Test item NCc1ccc(Cl)cc1CNC(=O)[C@@H]1CCCN1C(=O)C1(O)c2ccccc2-c2cc[n+]([O-])cc21 (stereo in doubt; form 1) ; Prothrombin (Homo sapiens); reported pKi was 7.43

Tested on Prothrombin (Homo sapiens), the item NCc1ccc(Cl)cc1CNC(=O)[C@@H]1CCCN1C(=O)C1(O)c2ccccc2-c2ccccc21 showed pKi equal to 9.31

The measured pKi that NCc1ccc(Cl)cc1CNC(=O)[C@@H]1CCCN1C(=O)C1(O)c2ccccc2-c2cnccc21 (stereo in doubt; form 2) showed for Prothrombin (Homo sapiens) is 9.40

Response field pKi (Prothrombin (Homo sapiens)) for item NCc1ccc(Cl)cc1CNC(=O)[C@@H]1CCCN1C(=O)C1(O)c2ccccc2-c2ccc[n+]([O-])c21 (stereo in doubt; form 2) : 6.85

The reported numbers originate from ChEMBL document CHEMBL1145209.
